The measurements presented in this section are drawn from patent US20250059141A1.

For each of the compounds below, state its EC50.
Biological target: hTLR8 (human Toll-like receptor 8) (Homo sapiens)
Construct: host or cells: HEK-Blue hTLR8 (HEK293-derived reporter cells)
Sequence (Q9NR97 27-1041): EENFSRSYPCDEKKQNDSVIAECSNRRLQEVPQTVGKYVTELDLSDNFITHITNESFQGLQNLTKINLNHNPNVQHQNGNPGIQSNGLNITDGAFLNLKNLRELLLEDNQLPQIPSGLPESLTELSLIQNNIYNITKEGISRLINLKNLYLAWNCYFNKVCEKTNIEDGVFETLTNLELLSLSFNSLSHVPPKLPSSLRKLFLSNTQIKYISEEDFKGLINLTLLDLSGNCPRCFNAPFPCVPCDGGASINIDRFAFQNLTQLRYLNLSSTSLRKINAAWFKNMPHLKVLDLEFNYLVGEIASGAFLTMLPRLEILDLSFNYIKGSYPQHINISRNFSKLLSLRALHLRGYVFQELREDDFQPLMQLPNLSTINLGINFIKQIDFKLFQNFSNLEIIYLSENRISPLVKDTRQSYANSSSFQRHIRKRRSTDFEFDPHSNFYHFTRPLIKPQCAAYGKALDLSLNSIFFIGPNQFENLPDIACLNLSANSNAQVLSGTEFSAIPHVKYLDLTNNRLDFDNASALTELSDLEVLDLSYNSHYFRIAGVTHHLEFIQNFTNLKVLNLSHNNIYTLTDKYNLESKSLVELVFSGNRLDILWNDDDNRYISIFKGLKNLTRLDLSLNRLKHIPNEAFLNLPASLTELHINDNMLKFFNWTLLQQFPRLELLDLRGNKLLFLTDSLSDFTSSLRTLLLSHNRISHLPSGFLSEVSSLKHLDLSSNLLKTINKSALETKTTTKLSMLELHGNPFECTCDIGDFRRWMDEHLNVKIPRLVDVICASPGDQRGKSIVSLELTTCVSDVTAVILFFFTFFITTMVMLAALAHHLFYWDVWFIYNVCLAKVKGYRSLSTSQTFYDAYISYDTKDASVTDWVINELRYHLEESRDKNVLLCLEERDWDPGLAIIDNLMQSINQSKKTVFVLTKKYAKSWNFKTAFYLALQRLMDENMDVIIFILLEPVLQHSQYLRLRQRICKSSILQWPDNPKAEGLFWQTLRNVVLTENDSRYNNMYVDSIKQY
Experiment: HEK-Blue hTLR8 reporter assay (QUANTI-Blue, OD650)
Assay type: cell-based
Details: HEK-Blue hTLR8 cells, 24 h; read-out: Reporter assay TLR8 EC50
The answer consists of two parts: a number and, after it, its unit.

Returns the measured EC50 for the input compound. Input: CCCN(OCc1ccc(N)cc1)C(=O)C1=Cc2ccc(C(=O)Nc3cccnc3)cc2N=C(N)C1 [Compound 40]
2.5 nM

// query: NC1=Nc2cc(-c3cncc(CO)c3)ccc2C=C(C(=O)N(CC2CC2)OCc2ccc(N)cc2)C1 [Compound 45]
2.3 nM

Request: CCCN(OCc1ccc(N)cc1)C(=O)C1=Cc2ccc(-c3cncc(N)c3)cc2N=C(N)C1 [Compound 52]
4.4 nM

Record: CCCN(OCc1ccc(N)cc1)C(=O)C1=Cc2ccc(-c3cncc(S(N)(=O)=O)c3)cc2N=C(N)C1 [Compound 36]
1.71 nM
